molecular target: dL5; assay: KD measurement of fluorogen-dL5; settings: fluorogen binding to dL5
observation_type: pKd
// pKd: -log10(molar conc.)

Input line: Give pKd for this entry on dL5: CCOC(=O)CCCOc1ccc(C(=C2C=CC(=[N+](C)C)C=C2)c2ccc(N(C)C)cc2)cc1 [MG, reference compound]
Output line: 11.30
